Sourced from the RNAGym collection of RNA variant scans (doi:10.1093/nar/gkz1192)

B1: CPEB3 Ribozyme (parent)
chain: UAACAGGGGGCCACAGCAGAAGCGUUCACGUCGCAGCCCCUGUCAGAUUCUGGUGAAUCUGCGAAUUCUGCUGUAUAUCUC

variants of: B1; assay: self-cleavage, relative activity (ratio to wild type); higher = more cleavage; in vitro, sequencing
property: self-cleavage
Reply with the value as a number alone.

Illustrative cases are given below, each with its answer.
sequence.string	self-cleavage
CAACAGGGGGCCACAGCAGAAGCGUUCACGUCGCAGCCCCUGUCAGAUUCUGGUGAAUCUGCGAACUCUGCUGUAUAUCUC	0.39
UAACAGGGGGCCAAAGCAGAAGCGUUCACGUCGCAGCCCCUGUCAGAUUCUGGUGAAUCUGCGAAUUCCGCUGUAUAUCUC	0.4
UAACAGGGGGCCACAGCAGAAGCGGUCACGUCGCAGCCCCUGUCAGAUUCUGGUGAAUUUGCGAAUUCUGCUGUAUAUCUC	0.21
UAACAGGGGGCCACAGCAGAAGCGUUCACGUCGCAGCCCCUGUCAGAUUCUGGUGAAUCUGCGAACUCUGCUGUAUAUUUC	0.39
UAACAGGGGGCCACAGCAGAAGCGUUCACGUCGCAGCCCCUGUCAGAUUCUGGUGUAUCUGCGAAUUCUGCUGUACAUCUC	0.8
UAACAGGGGGCUACAGCAGAAGCGUUCACGUCGCAGCCCCUGUCAGAUUCUGGUGAAUCUGCGAAUUCUGCUGUAUAACUC	1.28
UAACAGGGGGCCACAGCAGAAGCGGUCGCGUCGCAGCCCCUGUCAGAUUCUGGUGAAUCUGCGAAUUCUGCUGUAUAUCUC	0.37
UAACGGGGGGCCACAGCAGAACCGUUCACGUCGCAGCCCCUGUCAGAUUCUGGUGAAUCUGCGAAUUCUGCUGUAUAUCUC	0.34
UAACAGGAGGCCACAGCAGAAGCGUUCACGUCGCAGCCCCUGUCAGAUUCGGGUGAAUCUGCGAAUUCUGCUGUAUAUCUC	0.09
UAACAGGGGGCCACGGCAGAAGCGUUCACGUCGCAGCCCCUGUCAGAUUGUGGUGAAUCUGCGAAUUCUGCUGUAUAUCUC	0.57

Now, please, on to the next variant.
What value of self-cleavage has been reported for the following variant? UAACAGGGGGCCACAGUAGAAGCGUUCACGUCGCAGCACCUGUCAGAUUCUGGUGAAUCUGCGAAUUCUGCUGUAUAUCUC
0.39
